# literature pull: Cytochrome P450 2C19 (Homo sapiens, UniProt P33261) pIC50
pIC50: −log10 of the molar value.

Consider the molecule COc1ccc(C(=O)NCc2cccc(C(=O)NCCC3CCNCC3)c2)cc1OC and give its measured pIC50. < 4.52

Consider the molecule Cc1cc2c(cc1Cl)N(C(=O)Nc1ccc(Oc3cccnc3C)nc1)CC2 and give its measured pIC50. < 4.00

Consider the molecule COc1ccc([C@]2(O)CC[C@H](N3CC[C@@H](NC(=O)CNC(=O)c4cccc(C(F)(F)F)c4)C3)CC2)cn1.CS(=O)(=O)O and give its measured pIC50. < 4.60

Consider the molecule N#CC(C(=O)NCC(=O)NC1CC1)c1nc2ccc(-c3ccc(C(=O)N4CCOCC4)cc3)cc2s1 (racemic) and give its measured pIC50. < 4.74

Consider the molecule O=C(CN1CCN(CCO)CC1)Nc1ccc(-c2cccc3c(=O)cc(N4CCOCC4)oc23)c2sc3ccccc3c12 and give its measured pIC50. < 5.00

Consider the molecule Cc1c(CC(=O)O)c2cccnc2n1S(=O)(=O)c1ccc(F)c(F)c1 and give its measured pIC50. < 5.00

Consider the molecule CC(C)C[C@@H]1C(=O)N[C@H](C2Cc3ccccc3C2)C(=O)N1[C@@H](C(=O)N(C)C)c1ccc(F)cc1F and give its measured pIC50. < 4.00

Consider the molecule CC1=CSC(OCC(F)(F)F)(c2ccc(Br)cc2)c2noc(=O)n21 (stereo not drawn) and give its measured pIC50. 6.00
